systemTested: erythrocytes infected with P. falciparum field isolate 9775
assayProcedure: flow cytometry, staining of IEs
Exam item: assign Yes to entries whose % parasite recognition is below 10% and No to entries at or above 10%. Note that a value of exactly 10% receives No.

stdin: Hi there! Is % parasite recognition for MGD34 (antibody) VH: EVQLVESGPGLMKTSGTLSLTCAVSGDYVNTNRRWSWVRQAPGKGLEWIGEVHQSGRTNYNPSLKSRVTISVDKSKNQFSLKVDSVTAADTAVYYCARASPLKSQRDTEDLPRPSISAEPGTVIPLGSHVTFVCRGPVGVQTFRLERERNYLYSDTEDVSQTSPSESEARFRIDSVNAGNAGLFRCIYYKSRKWSEQSDYLELVVKGEDVTWALSQSQVDPRACPQGELPISTDIYYVDVWGNGTTFTVSS VL: AIRMTQSPSSLSASPGDKVSITCRASQHINDSLAWFQQRPGKAPKLLIYGASNLHSGVPSRFSGTGSGTDFTLTITGLQSEDFATYFCQQCNCFPPDFGQGTRLEIK below 10%, do you know?
stdout: No

stdin: Hi there! Is % parasite recognition for MGC33 (antibody) VH: EVHLVESGGGLVQPGGSLRLSCEASGFTFSSYWMTWVRQAPGKGLEWVANINQDGSERYYVDSVKGRFTISRDTVKNSLYLQMNNLRAEDTAVYYCARQRFCSDGSLFHGEDLPRPTISAETGTVISLGSHVTFVCRGPLGVQTFRLERESRSRYSETEDVSQVGPSESEARFRIDSVSEGNAGLYRCIYYKPPKWSEQSDYLELRVKGEDVTWALLTYCGGDRDESDYYMDVWGKGTTVTVSS VL: QTVVTQEPSLTVSPGGTVTLTCASSTGSVTSGSFPNWFQQTPGQAPRSLIYSTTKKHSWTPARFSGSLLGGKAALTVSDTQPEDEAEYYCLLYCGGGQPWVFGGGTKLTVQ below 10%, do you know?
stdout: Yes

stdin: Hi there! Is % parasite recognition for MGC36 (antibody) VH: EVVLVESGGGLVQPGGSLRLSCEASGFNSRSYWMTWVRQAPGKGLEWVASINQDGTEKNYVDSVKGRFTISRDSAKNSLYLQMSSLRADDTAVYYCARDRFCGGESHLHGEEDLPRPSISAEPDTVIPLGSHVTFVCRGPVGVHTFRLERGWRYNDTEDVSQAGPSESEARFRIDSVREGNAGLYRCIYYIAPKWSEQSDYLELRVKGGDVTWALLTYCGGDGEESDYPMDVWGKGTTVTVSS VL: QTVVTQEPSLTVSPGGTVTLTCASSTGPVTSAYYPNWFQQKPGQAPRSLIYSINKKHSWTPARFSGSLLGGKAALTLSGVQPEDEADYYCLLSCGGAQPWVFGGGTKLTVQ below 10%, do you know?
stdout: Yes

stdin: Hi there! Is % parasite recognition for MGD23 (antibody) VH: QVQLQESGPGLVKPSGTLSLTCSVSGGSISSNKWWSWVRQSPGKGLEWIGEVYQTGITNYNPSLKGRVTMSVDKSKNQFSLRLTSVTAADTAVYYCATISQLRPQGDTEDLPRPSLSAEPGTVIPLGSHVTFVCRGPAGVETFRLERESRFTYNDTEDVSQASPSESEARFRIDSVSEGNAGPYRCLYYKARKWSDQSDYLELLVKGADVTWALPQSQLAPRACPQGELRISTDVFSMNVWGNGTTVTVSS VL: AVRVTQSPTSLSASTGDRVTITCRTSQYVGNYLDWYQQKPGKAPKLLIHGVSTLQNGVPSRFSGSASGTDFTLNITCLQSEDSATYYCQQYYTSPPDFGQGTRLEIK below 10%, do you know?
stdout: Yes

stdin: Hi there! Is % parasite recognition for MGD55 (antibody) VH: QVQLQESGPGLVKPSGTLSLTCTVSGGSISAYKWWSWVRQAPGKGLEWIGQVYHNGNTNYNPSLKGRVAMSVDKSKNRFSLRLASVTAADTAVYYCATISPLRPQSDTDDLPRPSISAEPGTVIPLGSHVTFVCRGPIGVQTFRLERESRSLYSDTEDVSQVSPFASEARFRIDSVSEGNAGPYRCIYYKDRKWSDQSDYLELLVKGEDVTWALPQSQLAPRACPQEELNISTDIFSMNVWGKGTTVTVSS VL: AIRMTQSPASLSASIGDRVTITCRTSQDVGNYLDWYQQKPGKAPKLLIHGASTLQTGVPSRFSGSGAGTDFTLNITCLQSGDFAMYYCQQYYSSPPGFGQGTRLEIK below 10%, do you know?
stdout: No

stdin: Hi there! Is % parasite recognition for MGC4 (antibody) VH: EVQLVESGGGLVQPGGSLRLSCEGSGFNSRSYWMTWVRQAPGKGLEWVASINQDGTEKNYVDSVKGRFTISRDSAKNSLYLQMSSLRADDTAVYYCARDRFCGGESHLHGEEDLPRPSISAEPDTVIPLGSHVTFVCRGPVGVHTFRLERGWRYNDTEDVSQAGPSESEARFRIDSVREGNAGLYRCIYYIAPKWSEQSDYLELRVKGGDVTWALLTYCGGDGEESDYPMDVWGKGTTVTVSS VL: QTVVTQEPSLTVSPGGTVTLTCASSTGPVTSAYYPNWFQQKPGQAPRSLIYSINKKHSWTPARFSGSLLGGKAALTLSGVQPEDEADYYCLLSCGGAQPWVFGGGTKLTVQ below 10%, do you know?
stdout: Yes

stdin: Hi there! Is % parasite recognition for MGC37 (antibody) VH: EVQLVESGGDLVQPGGSLRLSCAASGFTFRNYWMSWVRQTPGKGLEWVANIRQDGSEKYYVDSVKGRFTISRDNAKNLLYLQMNSLRAEDTAVYYCVRDKFCSDENHMHVADDLPRPSISPEPGTVIPLGSHVTFVCRGPVGVQTFRLEKDRRSTYNDTEDVSQPSPSESEARFRIDSVTEGNAGLYRCVYYKPPKWSDQSDFLELLVKGEDVTWALFPHCGADGEDSDYYMDVWGKGTTVTVSS VL: DIQLTQSPSTLSASVGDRVTISCRASQRLSRSLAWYQQRPRKAPNLLIYKASPLEIGGPSRFTGSGSGTEFTLTISSLQPDDSATYYCQQYSNYSYSFGQGTKLEIR below 10%, do you know?
stdout: Yes
